Conditions: in isobutanol, 313.15 K
parameter: solubility (mole fraction)
Give the value as a plain number.

Q: Fill in the blank: the reported solubility (mole fraction) of CC(=O)c1ccc(O)cc1O is ____.
Result: 0.139

###

Settings: in n-butanol, 333.15 K
parameter: solubility (mole fraction)

Q: Fill in the blank: the reported solubility (mole fraction) of CC(=O)c1ccc(O)cc1O is ____.
Result: 0.253

###

Conditions: in benzene, 328.15 K
parameter: solubility (mole fraction)
Give the value as a plain number.

Q: Fill in the blank: the reported solubility (mole fraction) of CC(=O)c1ccc(O)cc1O is ____.
Result: 0.00178
